FYI, the data here is from the supplement of paper PMC7125110.

Overview of recorded self-cleavage kobs at 640 uM GlcN6P for various variants
B1: glmS ribozyme (parent)
chain: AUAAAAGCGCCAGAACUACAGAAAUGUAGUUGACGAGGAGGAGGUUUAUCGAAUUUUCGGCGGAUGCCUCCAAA

- Variants of: B1
- experimental protocol: self-cleavage kobs at 640 uM GlcN6P; higher = faster cleavage; RNA array
- test conditions: with glucosamine-6-phosphate
This sample holds only a part of the variants without activity.
metric: self-cleavage kobs at 640 uM GlcN6P

variant code: G40A G41A U55G
result: 4.12e-05 s⁻¹
//
variant code: C8G A36G
result: < 1e-05 s⁻¹
//
variant code: A15G A39C A53U
result: 0.000793 s⁻¹
//
variant code: C16U G38C
result: < 1e-05 s⁻¹
//
variant code: C34G U65G
result: < 1e-05 s⁻¹
//
variant code: A6U A33C
result: < 1e-05 s⁻¹
//
variant code: U30A C71A
result: 0.000632 s⁻¹
//
variant code: A42C U56C G60U
result: < 1e-05 s⁻¹
//
variant code: G43A C61G C67U C70U
result: < 1e-05 s⁻¹
//
variant code: C10U U30A A33U
result: < 1e-05 s⁻¹
//
variant code: G29C G51A C67G C68G U69G
result: 5.75e-05 s⁻¹
//
variant code: G44U U57C
result: < 1e-05 s⁻¹
//
variant code: G41U A64U
result: < 1e-05 s⁻¹
//
variant code: A14C A15G
result: 0.000597 s⁻¹
//
variant code: C11U C70G
result: 9e-05 s⁻¹
//
variant code: G7U C70G C71G
result: 0.000251 s⁻¹
//
variant code: C8U C16A G62U
result: < 1e-05 s⁻¹
//
variant code: C58G C71G
result: 3.12e-05 s⁻¹
//
variant code: U46C A53G
result: 0.00119 s⁻¹
//
variant code: C16A U31A
result: 0.000194 s⁻¹
//
variant code: C61U U65A
result: < 1e-05 s⁻¹
//
variant code: C10U C61U
result: < 1e-05 s⁻¹
//
variant code: U30G A53G
result: 0.00172 s⁻¹
//
variant code: C10A U31G
result: < 1e-05 s⁻¹
//
variant code: G13U C34A G40U C58A
result: < 1e-05 s⁻¹
//
variant code: C34G A64G
result: < 1e-05 s⁻¹
//
variant code: U31A U56A
result: 0.00221 s⁻¹
//
variant code: U30A G41A
result: 3.92e-05 s⁻¹
//
variant code: A12C G40U
result: 0.000471 s⁻¹
//
variant code: G29C A48G
result: < 1e-05 s⁻¹
//
variant code: G7U G40C U49A
result: < 1e-05 s⁻¹
//
variant code: G7C A14U U56A
result: < 1e-05 s⁻¹
//
variant code: A14C A53U C67U
result: 0.000153 s⁻¹
//
variant code: C67G
result: 0.00046 s⁻¹
//
variant code: A14C A15C
result: 0.000339 s⁻¹
//
variant code: U30G U45A G59C
result: < 1e-05 s⁻¹
//
variant code: G29C G43U A64U C68G
result: < 1e-05 s⁻¹
//
variant code: U47C U54G
result: 0.0013 s⁻¹
//
variant code: U31G U49G
result: 4.38e-05 s⁻¹
//
variant code: G9C C10A U56A
result: < 1e-05 s⁻¹
